Consider the following IC50 values measured on UniProt:O94782.
Sequence (O94782 whole entry): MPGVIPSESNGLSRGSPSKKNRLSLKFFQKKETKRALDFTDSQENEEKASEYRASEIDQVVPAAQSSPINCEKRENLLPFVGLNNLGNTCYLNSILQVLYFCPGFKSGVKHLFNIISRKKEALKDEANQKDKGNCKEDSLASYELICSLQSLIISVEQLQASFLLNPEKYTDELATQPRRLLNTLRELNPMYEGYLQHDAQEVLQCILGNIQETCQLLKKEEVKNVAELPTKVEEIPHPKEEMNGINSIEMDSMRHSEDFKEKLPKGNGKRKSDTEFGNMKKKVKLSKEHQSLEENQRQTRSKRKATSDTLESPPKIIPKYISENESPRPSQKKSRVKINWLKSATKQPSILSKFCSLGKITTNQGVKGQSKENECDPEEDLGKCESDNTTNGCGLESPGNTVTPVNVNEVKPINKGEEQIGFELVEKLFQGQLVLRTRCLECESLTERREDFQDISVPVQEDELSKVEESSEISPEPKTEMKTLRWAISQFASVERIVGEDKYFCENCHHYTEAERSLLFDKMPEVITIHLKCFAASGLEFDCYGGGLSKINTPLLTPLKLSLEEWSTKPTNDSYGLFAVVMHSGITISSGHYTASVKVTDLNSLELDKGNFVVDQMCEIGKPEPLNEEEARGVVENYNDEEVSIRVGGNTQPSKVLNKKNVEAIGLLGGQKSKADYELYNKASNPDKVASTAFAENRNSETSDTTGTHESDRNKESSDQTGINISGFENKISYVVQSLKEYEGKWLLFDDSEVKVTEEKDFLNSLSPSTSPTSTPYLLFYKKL
Sequence (Q8TAF3 whole entry partner): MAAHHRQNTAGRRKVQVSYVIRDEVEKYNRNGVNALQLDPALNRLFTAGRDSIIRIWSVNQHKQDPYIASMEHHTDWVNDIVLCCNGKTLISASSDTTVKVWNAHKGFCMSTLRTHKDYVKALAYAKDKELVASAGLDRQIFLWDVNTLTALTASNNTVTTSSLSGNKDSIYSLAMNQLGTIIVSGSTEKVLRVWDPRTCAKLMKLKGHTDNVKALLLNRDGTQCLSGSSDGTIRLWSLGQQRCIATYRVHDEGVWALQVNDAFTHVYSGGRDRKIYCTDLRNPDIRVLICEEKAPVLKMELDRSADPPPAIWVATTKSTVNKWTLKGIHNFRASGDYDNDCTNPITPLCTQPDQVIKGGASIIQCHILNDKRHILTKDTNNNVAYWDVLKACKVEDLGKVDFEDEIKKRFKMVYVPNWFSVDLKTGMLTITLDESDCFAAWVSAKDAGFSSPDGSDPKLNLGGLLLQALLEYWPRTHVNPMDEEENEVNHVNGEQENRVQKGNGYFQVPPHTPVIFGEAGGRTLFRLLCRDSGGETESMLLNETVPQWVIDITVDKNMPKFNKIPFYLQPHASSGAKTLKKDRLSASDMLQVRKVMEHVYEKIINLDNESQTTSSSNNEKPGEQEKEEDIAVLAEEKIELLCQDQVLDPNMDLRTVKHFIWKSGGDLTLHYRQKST
measured-endpoint: IC50

COCCn1cc(Cc2ccc(-c3nc(C(F)(F)F)cn3C)cc2)c2nc(-c3ccccc3C(C)C)ncc21 :: < 30 nM
COc1ncnc(C2CC2)c1-c1ncc2[nH]c(C)c(C(O)c3ccc(-c4nc(C(F)(F)F)cn4C)cc3)c2n1 (stereo not shown) :: 100 to 10000 nM
COc1ncnc(C2CC2)c1-c1ncc2[nH]nc(Cc3ccc(-c4nc(C(F)(F)F)cn4C)cc3C)c2n1 :: < 30 nM
COc1cccc(OC)c1-c1ncc2[nH]cc(Cc3ccc(-c4nc(C(F)(F)F)cn4C)cc3)c2n1 :: 30 to 100 nM
CC(C)n1cc(C(F)(F)F)nc1-c1ccc(C(O)c2c[nH]c3cnc(-c4c(OC(F)F)ncnc4C4CC4)nc23)cc1 (stereo not shown) :: 30 to 100 nM
COc1ncnc(C(C)(C)C)c1-c1ncc2[nH]cc(Cc3ccc(-c4nc(C(F)(F)F)cn4C)cc3)c2n1 :: 30 to 100 nM
COc1ncnc(C2CC2)c1-c1ncc2c(n1)c(Cc1ccc(-c3nc(C(F)(F)F)cn3C)cc1)cn2C(C)=O :: 30 to 100 nM

###

system: monoubiquitinated PCNA; assay: AlphaLISA assay measuring monoubiquitinated PCNA in MDA-MB-436; type: cell-based; conditions: Homo sapiens, read-out: Alpha LISA IC50
measured-endpoint: IC50

COc1ncnc(C2CC2)c1-c1ncc2[nH]nc(Cc3ccc(-c4nc(C(F)(F)F)cn4C)c(C)c3)c2n1 :: < 100 nM
CC(C)c1ccccc1-c1cc2c(Oc3ccc(-c4nc(C(F)(F)F)cn4C)cc3)c[nH]c2cn1 :: < 100 nM
CCn1cc(C(F)(F)F)nc1-c1ccc(Cc2n[nH]c3cnc(-c4c(OC)ncnc4C4CC4)nc23)cc1 :: < 100 nM
COc1ncnc(C2CC2)c1-c1ncc2c(n1)c(Sc1ccc(-c3nc(C(F)(F)F)cn3C)cc1)cn2C :: 250 to 10000 nM
CC(C)n1cc(C(F)(F)F)nc1-c1ccc(C(O)c2c[nH]c3cnc(-c4c(OC(F)F)ncnc4C4CC4)nc23)cc1 (stereo not drawn) :: < 100 nM
COc1ncnc(C2CC2)c1-c1ncc2[nH]c(F)c(Cc3ccc(-c4nc(C(F)(F)F)cn4C)cc3)c2n1 :: < 100 nM
COc1ncnc(C2CC2)c1-c1ncc2[nH]cc([C@@](C)(O)c3ccc(-c4nc(C(F)(F)F)cn4C)cc3)c2n1 (single isomer, unassigned) :: 100 to 250 nM
CC(C)c1ccccc1-c1ncc2[nH]cc([C@H](C)c3ccc(-c4nc(C(F)(F)F)cn4C)cc3)c2n1 (single isomer, unassigned) :: < 100 nM
COc1ncnc(C2CC2)c1-c1ncc2[nH]c(C)c(Cc3ccc(-c4nc(C(F)(F)F)cn4C)cc3)c2n1 :: < 100 nM
COc1ncnc(C#N)c1-c1ncc2[nH]cc(Cc3ccc(-c4nc(C(F)(F)F)cn4C)cc3)c2n1 :: 250 to 10000 nM
COc1ncnc(C2CC2)c1-c1nc(C)c2[nH]nc(Cc3ccc(-c4nc(C(F)(F)F)cn4C)cc3)c2n1 :: < 100 nM
COc1ncnc(C2CC2)c1-c1ncc2c(n1)c(Cc1ccc(-c3nc(C(F)(F)F)cn3C)cc1)nn2C(C)C (single isomer, unassigned) :: < 100 nM
COc1ccnc(C2CC2)c1-c1ncc2[nH]nc(Cc3ccc(-c4nc(C(F)(F)F)cn4C)cc3)c2n1 :: 100 to 250 nM
COc1ncnc(C2CC2(F)F)c1-c1ncc2[nH]nc(Cc3ccc(-c4nc(C(F)(F)F)cn4C)cc3)c2n1 (stereo not drawn) :: < 100 nM
COc1ncnc(C2CC2)c1-c1ncc2[nH]cc(Cc3ccc(-c4nc(C(F)(F)F)cn4C)cc3F)c2n1 :: < 100 nM
COc1ncnc(OC)c1-c1ncc2[nH]cc(Cc3ccc(-c4nc(C(F)(F)F)cn4C(C)C)cc3)c2n1 :: < 100 nM
COc1ncnc(C(C)C)c1-c1ncc2[nH]cc(Cc3ccc(-c4nc(C(F)(F)F)cn4C)cc3)c2n1 :: < 100 nM
Cn1cc(C(F)(F)F)nc1-c1ccc(Cc2n[nH]c3cnc(-c4c(C5CC5)ncnc4C4CC4)nc23)cc1 :: < 100 nM
CC(C)c1ccccc1-c1cc2c(CN3CCN(c4nc(C(F)(F)F)cn4C)CC3)c[nH]c2cn1 :: 250 to 10000 nM
CCOc1ncnc(C2CC2)c1-c1ncc2[nH]cc(Cc3ccc(-c4nc(C(F)(F)F)cn4C)cc3)c2n1 :: < 100 nM
[2H]C([2H])([2H])n1cc(C(F)(F)F)nc1-c1ccc(Cc2c[nH]c3cnc(-c4c(OC)ncnc4C4CC4)nc23)cc1 :: < 100 nM
COc1ncnc(C2(F)CC2)c1-c1ncc2[nH]cc(Cc3ccc(-c4nc(C(F)(F)F)cn4C)cc3)c2n1 :: < 100 nM
C[C@@H](Oc1ncccc1-c1ncc2[nH]cc(Cc3ccc(-c4nc(C(F)(F)F)cn4C)cc3)c2n1)C(F)(F)F (single isomer, unassigned) :: < 100 nM
CCn1cc(C(F)(F)F)nc1-c1ccc(Cc2nn(C)c3cnc(-c4c(OC)ncnc4C4CC4)nc23)cc1 :: < 100 nM
Cn1cc(C(F)(F)F)nc1-c1ccc(Cc2c[nH]c3cnc(-c4c(Cl)ccnc4C4CC4)nc23)cc1 :: < 100 nM
[2H]C([2H])([2H])Oc1ncnc(C2CC2)c1-c1ncc2[nH]nc(Cc3ccc(-c4nc(C(F)(F)F)cn4C)cc3)c2n1 :: < 100 nM
COc1ncnc(C2CC2)c1-c1nc(C)c2[nH]cc(Cc3ccc(-c4nc(C(F)(F)F)cn4C)cc3)c2n1 :: < 100 nM

###

Each entry below lists one item and its recorded pIC50 value.
tested on: monoubiquitinated PCNA; experiment: AlphaLISA assay measuring monoubiquitinated PCNA in MDA-MB-436; assay type: cell-based; details: Homo sapiens, read-out: Alpha LISA IC50
pIC50: −log10 of the molar value.
measured-endpoint: pIC50

COc1ncnc(C2CC2)c1-c1ncc2[nH]c(CN(C)C)c(Cc3ccc(-c4nc(C(F)(F)F)cn4C)cc3)c2n1 :: > 7.00
COc1nccc(C)c1-c1ncc2[nH]nc(Cc3ccc(-c4nc(C(F)(F)F)cn4C)cc3)c2n1 :: 5.00 to 6.60
Cn1cc(C(F)(F)F)nc1-c1ccc(Cc2c[nH]c3cnc(-c4cccnc4OCC(F)(F)F)nc23)cc1 :: > 7.00
Cn1cc(C(F)(F)F)nc1-c1ccc(Cc2c[nH]c3cnc(-c4c(OC(F)F)ncnc4C4CC4)nc23)cc1 :: > 7.00
COc1ncnc(C2CC2)c1-c1ncc2[nH]cc(Cc3ccc(-c4nc(C(F)(F)F)cn4C(C)C)cc3)c2n1 :: > 7.00
COc1ncnc(C2CC2)c1-c1ncc2[nH]nc(Cc3ccc(-c4nc(C(F)(F)F)cn4C)cc3F)c2n1 :: > 7.00
Cn1cc(C(F)(F)F)nc1-c1ccc(Cc2c[nH]c3cnc(-c4cccnc4C4CC4)nc23)cc1 :: > 7.00
COc1ncnc(C2CC2)c1-c1ncc2c(n1)c(Cc1ccc(-c3nc(C(F)(F)F)cn3C)cc1)cn2CC(F)(F)F :: > 7.00
CN1CC(n2cc(C(F)(F)F)nc2-c2ccc(Cc3c[nH]c4cnc(-c5cccnc5OC(F)F)nc34)cc2)C1 :: > 7.00
COc1ncnc(C2CC2)c1-c1ncc2[nH]cc(Sc3ccc(-c4nc(C(F)(F)F)cn4C)cc3)c2n1 :: 6.60 to 7.00
COc1ncnc(C2CC2)c1-c1ncc2nn(C(C)=O)c(Cc3ccc(-c4nc(C(F)(F)F)cn4C)cc3)c2n1 :: > 7.00
Cn1cc(C(F)(F)F)nc1-c1ccc(C(O)c2c[nH]c3cnc(-c4c(OC(F)F)ncnc4C4CC4)nc23)cc1 (stereo not shown) [Compound 168] :: > 7.00
COc1ncnc(C2CC2)c1-c1ncc2c(n1)c(Cc1ccc(-c3nc(C(F)(F)F)cn3C)cc1)nn2CC(F)(F)F :: > 7.00
COc1ncnc(C2CC2)c1-c1ncc2[nH]nc(Cc3cc(F)c(-c4nc(C(F)(F)F)cn4C)c(F)c3)c2n1 :: > 7.00
COc1ncnc(C2CC2)c1-c1ncc2[nH]cc(Cc3ccc(-c4nc(C(F)(F)F)cn4C)cc3C)c2n1 :: > 7.00
Cn1cc(C(F)(F)F)nc1-c1ccc(Cc2c[nH]c3cnc(-c4c(C(F)(F)F)cnn4C)nc23)cc1 :: > 7.00
COc1ncnc(C2CC2)c1-c1ncc2[nH]c(C)c(C(O)c3ccc(-c4nc(C(F)(F)F)cn4C)cc3)c2n1 (stereo not shown) :: 5.00 to 6.60
COCCn1cc(Cc2ccc(-c3nc(C(F)(F)F)cn3C)cc2)c2nc(-c3ccccc3C(C)C)ncc21 :: > 7.00
COc1ncnc(C2CC2)c1-c1ncc2[nH]nc(Cc3ccc(-c4nc(C(F)(F)F)cn4C4COC4)cc3)c2n1 :: 6.60 to 7.00
Cn1cc(C(F)(F)F)nc1-c1ccc(Cc2c[nH]c3cnc(-c4cccnc4C4CC4)cc23)cc1 :: > 7.00
COCCn1cc(Cc2ccc(-c3nc(C(F)(F)F)cn3C)cc2)c2nc(-c3c(OC)ncnc3C3CC3)ncc21 :: > 7.00
COc1ncnc(C2CC2)c1-c1ncc2[nH]nc(Cc3ccc(-c4nc(C(F)(F)F)cn4C4CC4)cc3)c2n1 :: > 7.00
COc1ncnc(C2CC2)c1-c1nc(OC)c2[nH]cc(Cc3ccc(-c4nc(C(F)(F)F)cn4C)cc3)c2n1 :: 5.00 to 6.60
C[C@H](Oc1ncccc1-c1ncc2[nH]cc(Cc3ccc(-c4nc(C(F)(F)F)cn4C)cc3)c2n1)C(F)(F)F (single isomer, unassigned) :: > 7.00
COc1ncnc(C2CC2)c1-c1ncc2c(n1)c(Cc1ccc(-c3nc(C(F)(F)F)cn3C3CC3)cc1)cn2C :: > 7.00
COc1ncnc(C2CC2)c1-c1ncc2[nH]nc(Cc3cc(F)c(-n4nc(C(F)(F)F)cc4C)c(F)c3)c2n1 :: 6.60 to 7.00
COc1ncnc(C(C)(C)C)c1-c1ncc2c(n1)c(Cc1ccc(-c3nc(C(F)(F)F)cn3C)cc1)nn2C :: 6.60 to 7.00
COc1ncnc(C2CC2)c1-c1ncc2c(n1)c(Cc1ccc(-c3nc(C(F)(F)F)cn3C)cc1)cn2C(C)=O :: > 7.00
